TARGET OF ASSAY: T1, ADI-22523 Fab
T1 construct: anti-CD3 Fab by papain digestion of the IgG
T1 sequence (VH, as listed by the source limits assumed, chain 1 of 2): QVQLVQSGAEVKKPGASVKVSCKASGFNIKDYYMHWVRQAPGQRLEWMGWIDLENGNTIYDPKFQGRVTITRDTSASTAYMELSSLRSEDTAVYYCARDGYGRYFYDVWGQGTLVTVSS
T1 sequence (VL, as listed by the source limits assumed, chain 2 of 2): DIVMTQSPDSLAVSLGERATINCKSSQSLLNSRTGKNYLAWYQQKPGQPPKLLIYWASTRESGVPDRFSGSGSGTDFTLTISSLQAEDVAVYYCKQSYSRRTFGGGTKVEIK
PROCEDURE SUMMARY: BLI; tip anti-ID IgG, solution ADI-22523 Fab
Here the recorded pKd is given for each entry.
Worth noting: pKd values are minus log10 of concentrations stated in mol/L.

Req: What pKd value was documented for this binder, ADI-34138 (antibody, V domains shown, anti-ID IgG) VH: QVQLVQSGAEVKKPGSSVKVSCKASGGTFSSYAISWVRQAPGQGLEWMGGIIPIFGTANYAQKFQGRVTITADESTSTAYMELSSLRSEDTAVYYCARGAPNYYGSGGYDDGWFDPWGQGTLVTVSS VL: EIVMTQSPGTLSLSPGERATLSCRASQSVSSSYLAWYQQKPGQAPRLLIYGASNRATGIPDRFSGSGSGTDFTLTISRLEPEDFAVYYCQQAHTALWTFGGGTKVEIK ?
Resp: 8.01

Req: What pKd value was documented for this binder, ADI-34135 (antibody, V domains shown, anti-ID IgG) VH: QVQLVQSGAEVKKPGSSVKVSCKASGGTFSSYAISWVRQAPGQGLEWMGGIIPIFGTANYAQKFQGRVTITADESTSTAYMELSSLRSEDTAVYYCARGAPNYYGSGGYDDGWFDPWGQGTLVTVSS VL: EIVMTQSPGTLSLSPGERATLSCRASQSVSSSYLAWYQQKPGQAPRLLIYGASSRATGIPDRFSGSGSGTDFTLTISRLEPEDFAVYYCQQFGRYPTFGGGTKVEIK ?
Resp: 8.11

Lab note: next binder to report on.
Req: What pKd value was documented for this binder, ADI-34137 (antibody, V domains shown, anti-ID IgG) VH: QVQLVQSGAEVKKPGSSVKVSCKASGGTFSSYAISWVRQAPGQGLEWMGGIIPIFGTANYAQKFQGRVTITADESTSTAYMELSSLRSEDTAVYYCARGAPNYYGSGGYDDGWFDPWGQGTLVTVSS VL: EIVLTQSPGTLSLSPGERATLSCRASQSVSSSYLAWYQQKPGQAPRLLIYGASSRATGIPDRFSGSGSGTDFTLTISRLEPEDFAVYYCQQFGRFPTFGGGTKVEIK ?
Resp: 7.83
